Data provenance is paper PMC7382742.

biological target: Calcium/calmodulin-dependent protein kinase IV (CaMKIV) (Homo sapiens); construct: gene CAMK4; CaMKIV kinase domain; assay: malachite green (BIOMOL Green) ATPase inhibition assay with recombinant refolded CaMKIV; also intrinsic fluorescence quenching (binding constant […] ^-1); format: biochemical
Sequence (Q16566 46-300 limits assumed): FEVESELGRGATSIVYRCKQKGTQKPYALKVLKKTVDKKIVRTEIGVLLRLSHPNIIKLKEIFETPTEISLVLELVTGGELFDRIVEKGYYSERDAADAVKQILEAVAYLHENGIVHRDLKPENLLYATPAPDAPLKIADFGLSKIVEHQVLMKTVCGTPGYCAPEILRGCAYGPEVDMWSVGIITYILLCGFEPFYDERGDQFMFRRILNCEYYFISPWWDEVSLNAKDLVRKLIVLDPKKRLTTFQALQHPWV
endpoint-name: IC50 (µM)
Dear colleague, please return just the value in µM, with no unit written.

q: Data request, read-out IC50, for O=c1oc2c(O)c(O)cc3c(=O)oc4c(O)c(O)cc1c4c23
a: 39.7
